Biological target: UniProtKB P05067
Sequence (P05067 whole entry): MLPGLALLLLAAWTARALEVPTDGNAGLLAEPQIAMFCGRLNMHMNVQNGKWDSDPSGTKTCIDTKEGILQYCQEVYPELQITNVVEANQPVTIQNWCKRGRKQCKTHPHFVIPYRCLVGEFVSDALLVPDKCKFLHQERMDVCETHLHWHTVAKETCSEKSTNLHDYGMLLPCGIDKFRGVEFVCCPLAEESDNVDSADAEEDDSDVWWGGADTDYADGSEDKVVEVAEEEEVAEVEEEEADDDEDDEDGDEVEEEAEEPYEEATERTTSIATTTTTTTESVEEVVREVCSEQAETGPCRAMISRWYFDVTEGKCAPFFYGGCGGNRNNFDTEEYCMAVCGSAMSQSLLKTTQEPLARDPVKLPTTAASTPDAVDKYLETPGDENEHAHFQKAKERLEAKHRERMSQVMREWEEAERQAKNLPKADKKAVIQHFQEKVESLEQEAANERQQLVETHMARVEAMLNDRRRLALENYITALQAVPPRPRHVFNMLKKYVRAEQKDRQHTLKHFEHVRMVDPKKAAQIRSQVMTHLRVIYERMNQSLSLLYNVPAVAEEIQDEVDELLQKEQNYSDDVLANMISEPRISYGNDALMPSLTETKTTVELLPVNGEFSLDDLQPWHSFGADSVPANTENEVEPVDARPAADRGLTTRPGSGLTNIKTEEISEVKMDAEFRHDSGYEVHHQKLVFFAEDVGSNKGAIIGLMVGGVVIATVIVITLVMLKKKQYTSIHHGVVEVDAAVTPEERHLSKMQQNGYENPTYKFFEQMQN
Assay: Inhibition of amyloid beta (unknown origin) aggregation
pIC50: −log10 of the molar value.
Measured Metric: pIC50

Compound Structure String | Result
c1ccc2c(NCCSSCCNc3c4c(nc5ccccc35)CCCC4)c3c(nc2c1)CCCC3 | 4.62

----------
Biological target: Acetylcholinesterase (Homo sapiens, UniProt P22303)
Sequence (P22303 whole entry): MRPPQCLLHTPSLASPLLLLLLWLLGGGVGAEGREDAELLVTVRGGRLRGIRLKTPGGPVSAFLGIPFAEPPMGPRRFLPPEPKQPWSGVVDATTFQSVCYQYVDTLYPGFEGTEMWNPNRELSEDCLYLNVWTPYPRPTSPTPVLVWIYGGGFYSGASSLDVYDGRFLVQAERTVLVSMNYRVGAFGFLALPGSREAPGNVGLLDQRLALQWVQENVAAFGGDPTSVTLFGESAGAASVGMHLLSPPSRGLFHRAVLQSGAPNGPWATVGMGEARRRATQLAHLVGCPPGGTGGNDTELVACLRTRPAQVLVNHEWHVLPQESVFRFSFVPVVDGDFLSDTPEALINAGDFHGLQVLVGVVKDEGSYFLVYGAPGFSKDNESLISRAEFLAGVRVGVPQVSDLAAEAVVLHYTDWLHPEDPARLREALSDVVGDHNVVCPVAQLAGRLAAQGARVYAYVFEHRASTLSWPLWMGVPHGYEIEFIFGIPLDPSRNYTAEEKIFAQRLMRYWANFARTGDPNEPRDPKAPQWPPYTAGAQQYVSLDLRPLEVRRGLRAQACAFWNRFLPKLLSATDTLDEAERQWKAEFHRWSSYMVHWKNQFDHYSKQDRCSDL
Assay: Inhibition of AChE (unknown origin) assessed as inhibition of ROS production

Compound Structure String | IC50 / µM
O=C(CCCOc1cccc2[nH]c3ccccc3c12)NCCCNc1c2c(nc3ccccc13)CCCC2 | 23

Data provenance: ChEMBL document CHEMBL3232801
